Experimental target: human VR1 (Homo sapiens, UniProt Q8NER1)
Sequence (Q8NER1 whole entry): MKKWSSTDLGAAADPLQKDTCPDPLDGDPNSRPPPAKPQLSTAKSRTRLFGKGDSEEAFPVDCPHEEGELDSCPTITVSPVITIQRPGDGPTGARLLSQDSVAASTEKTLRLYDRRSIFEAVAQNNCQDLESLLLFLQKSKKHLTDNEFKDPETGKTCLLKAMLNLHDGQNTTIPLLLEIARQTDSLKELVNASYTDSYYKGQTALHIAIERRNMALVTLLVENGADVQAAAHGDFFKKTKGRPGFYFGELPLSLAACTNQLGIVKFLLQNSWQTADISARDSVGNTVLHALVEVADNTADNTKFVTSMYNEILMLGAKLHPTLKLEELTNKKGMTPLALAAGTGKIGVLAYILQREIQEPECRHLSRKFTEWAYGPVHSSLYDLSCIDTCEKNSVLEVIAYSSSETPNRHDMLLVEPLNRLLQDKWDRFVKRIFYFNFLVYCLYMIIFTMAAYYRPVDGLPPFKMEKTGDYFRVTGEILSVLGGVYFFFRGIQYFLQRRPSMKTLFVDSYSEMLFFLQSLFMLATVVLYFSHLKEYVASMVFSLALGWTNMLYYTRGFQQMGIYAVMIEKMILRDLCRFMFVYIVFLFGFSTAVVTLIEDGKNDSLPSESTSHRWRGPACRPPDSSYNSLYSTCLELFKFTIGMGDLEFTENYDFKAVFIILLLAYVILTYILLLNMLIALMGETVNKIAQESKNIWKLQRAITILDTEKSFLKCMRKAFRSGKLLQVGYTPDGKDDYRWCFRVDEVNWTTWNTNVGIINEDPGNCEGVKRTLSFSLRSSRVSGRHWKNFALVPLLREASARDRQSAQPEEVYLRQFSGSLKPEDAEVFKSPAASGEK
pKi: −log10 of the molar value.
Measured parameter: pKi

[[record]]
chemical_smiles = "O=C(CCc1ccc(Cl)cc1)Nc1ccc(-n2cnc(Cl)c2Cl)c(C(F)(F)F)c1"
observed_measurement = 7.58


(a) O=C(CCc1ccccc1)Nc1ccc(-c2ccncc2)c(C(F)(F)F)c1
(b) Cc1cc(NC(=O)CCc2ccc(Cl)cc2)cnc1-n1cnc(Cl)c1Cl
(c) CC(C)(C)c1ccc(CCC(=O)Nc2cc(F)c(-c3ccccn3)c(F)c2)cc1
(d) Cc1cn(-c2ncc(NC(=O)CCc3ccc(C(F)(F)F)cc3)cc2C)cn1
(e) O=C(CCc1ccc(C(F)(F)F)cc1)Nc1ccc(-c2cccc(O)c2)nc1
Number of compounds to sort: 5. Sort criterion: pKi, ascending. Answer format: the labels, in the requested order.
a, d, e, c, b

(1) CC(C)(C)c1ccc(CCC(=O)Nc2ccc(-c3ccccc3O)c(F)c2)cc1
(2) CC(C)(C)c1ccc(CCC(=O)Nc2cccc(-c3ccncc3)c2)cc1
(3) O=C(CCc1ccc(Cl)cc1)Nc1ccc(-c2ccncc2)c(C(F)(F)F)c1
Number of compounds to sort: 3. Sort criterion: pKi, ascending. Answer format: the labels, in the requested order.
3, 2, 1
(3: 5.99, 2: 6.74, 1: 7.17)

----------
Experimental target: human VR1 (Homo sapiens, UniProt Q8NER1)
Construct: expressed in transfected cells; host or cells: HEK293
Protocol notes: Human VR1 functional assay (FLIPR intracellular Ca2+)
Type: cell-based
Details: agonist response, 12 μM
Measured parameter: % Response Relative to EC80 of Capsaicin (12 μM) (%)

Use these answered entries as a reference point.
[[record]]
chemical_smiles = "CC(C)(C)c1csc(CCC(=O)Nc2ccc(-c3ccncc3)cc2)c1"
display_unit = "%"
observed_measurement = 113

[[record]]
chemical_smiles = "CC(=O)Nc1cccc(-c2ccc(NC(=O)CCc3ccc(C(F)(F)F)cc3)cc2)c1"
display_unit = "%"
observed_measurement = 82

[[record]]
chemical_smiles = "CC(C)(C)c1ccc(CCC(=O)Nc2cccc(-c3cccc(CO)c3)c2)cc1"
display_unit = "%"
observed_measurement = 45

[[record]]
chemical_smiles = "CC(C)(C)c1ccc(CCC(=O)Nc2ccc(-c3cccc(F)c3)cc2)cc1"
display_unit = "%"
observed_measurement = 80

[[record]]
chemical_smiles = "O=C(CCc1ccc(C(F)(F)F)cc1)Nc1ccc(-c2cccnc2)cc1"
display_unit = "%"
observed_measurement = 78


(1) O=C(CCc1ccc(C(F)(F)F)cc1)Nc1ccc(-c2ccncc2)nc1
(2) CN(C)C(=O)c1cccc(-c2ccc(NC(=O)/C=C/c3ccc(C(C)(C)C)cc3)cc2)c1
Pick one: 1 or 2 . Which has the bigger % Response Relative to EC80 of Capsaicin (12 μM) number? Output the label that corresponds to your choice.
1
(1: 100%, 2: 55%)

----------
Experimental target: human VR1 (Homo sapiens, UniProt Q8NER1)
pKi: −log10 of the molar value.
Measured parameter: pKi

Use these answered entries as a reference point.
[[record]]
chemical_smiles = "CC(C)(C)c1ccc(CCC(=O)Nc2ccc(-c3cccnc3)nc2)cc1"
observed_measurement = 6.99

[[record]]
chemical_smiles = "O=C(CCc1ccc(C(F)(F)F)cc1)Nc1cnc(-c2cccc(O)c2)c(C(F)(F)F)c1"
observed_measurement = 7.26


(P) Cc1cc(NC(=O)CCc2ccc(N(C)C3CCCCC3)cc2)cnc1-n1cnc(Cl)c1Cl
(Q) O=C(CCc1ccc(C(F)(F)F)cc1)Nc1cnc(-c2ccc(CO)cc2)c(C(F)(F)F)c1
(R) CC(C)(C)c1ccc(CCC(=O)Nc2ccc(-n3ccnc3)cc2)cc1
Number of molecules to sort: 3. Sort criterion: pKi, ascending. Answer format: the labels, in the requested order.
R, Q, P
(R: 6.51, Q: 6.79, P: 7.10)
